experimental.system: Monoamine transporters; serotonin & dopamine (Rattus norvegicus) (UniProt P31652+P23977)
Sequence (P23977 whole entry, looked up, one chain of several): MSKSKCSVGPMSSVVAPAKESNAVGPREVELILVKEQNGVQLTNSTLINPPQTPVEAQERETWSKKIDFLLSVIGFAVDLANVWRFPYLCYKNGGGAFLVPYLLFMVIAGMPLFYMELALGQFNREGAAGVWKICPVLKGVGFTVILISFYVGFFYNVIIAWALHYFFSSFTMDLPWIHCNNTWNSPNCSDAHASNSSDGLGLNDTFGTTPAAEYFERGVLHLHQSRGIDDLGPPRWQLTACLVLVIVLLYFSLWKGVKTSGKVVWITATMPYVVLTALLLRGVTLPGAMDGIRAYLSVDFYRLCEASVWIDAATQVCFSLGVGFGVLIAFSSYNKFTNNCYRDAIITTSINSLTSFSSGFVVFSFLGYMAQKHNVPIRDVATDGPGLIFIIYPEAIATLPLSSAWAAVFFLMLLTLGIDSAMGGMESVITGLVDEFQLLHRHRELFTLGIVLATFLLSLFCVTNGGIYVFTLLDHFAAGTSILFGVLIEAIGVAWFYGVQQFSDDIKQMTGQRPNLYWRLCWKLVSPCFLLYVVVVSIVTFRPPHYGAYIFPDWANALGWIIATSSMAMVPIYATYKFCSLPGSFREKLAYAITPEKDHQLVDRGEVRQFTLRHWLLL
assay.explanation: Uptake ratio at serotonin to dopamine transporters from rat brain
Reported Ratio values for the following compounds.

Examples from the recorded data:
COC(=O)C1C2CCC3CCC1N(C/C2=C\c1ccc(-c2ccc(C)s2)cc1)C3 (centres undefined)
0.3
COC(=O)C1C2CCC3CCC1N(C/C2=C\c1ccc(-c2ccc(N(C)C)cc2)cc1)C3 (centres undefined)
0.95
COC(=O)C1C2CCC3CCC1N(C/C2=C\c1ccc(-n2cccc2)cc1)C3 (centres undefined)
0.26

Give the value of Ratio reported for the following: COC(=O)C1C2CCC3CCC1N(C/C2=C\c1ccc(-c2ccsc2)cc1)C3 (centres undefined)
0.52

* * *

experimental.system: Sodium-dependent serotonin transporter (Rattus norvegicus, UniProt P31652)
Sequence (P31652 whole entry): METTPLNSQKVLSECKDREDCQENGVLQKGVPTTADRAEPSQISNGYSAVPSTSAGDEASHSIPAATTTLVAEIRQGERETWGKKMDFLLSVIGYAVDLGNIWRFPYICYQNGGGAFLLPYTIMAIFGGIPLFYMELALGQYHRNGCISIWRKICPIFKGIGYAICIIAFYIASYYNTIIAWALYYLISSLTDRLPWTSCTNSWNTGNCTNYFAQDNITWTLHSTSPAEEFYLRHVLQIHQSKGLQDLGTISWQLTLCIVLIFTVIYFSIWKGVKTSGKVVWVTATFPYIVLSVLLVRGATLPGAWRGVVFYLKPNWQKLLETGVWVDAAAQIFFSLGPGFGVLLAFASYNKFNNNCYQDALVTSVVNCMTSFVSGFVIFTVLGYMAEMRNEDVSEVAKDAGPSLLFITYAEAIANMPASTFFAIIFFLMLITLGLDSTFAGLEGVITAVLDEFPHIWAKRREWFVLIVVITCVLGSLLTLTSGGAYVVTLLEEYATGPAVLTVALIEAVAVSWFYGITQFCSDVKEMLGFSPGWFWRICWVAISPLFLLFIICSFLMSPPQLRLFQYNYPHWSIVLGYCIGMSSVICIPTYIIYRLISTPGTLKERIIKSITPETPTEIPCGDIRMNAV
assay.explanation: Ability to inhibit [3H]5-HT reuptake at serotonin transporter from rat brain
quantity.kind: pKi
Expect pKi as a plain number equal to -log10 of the molar concentration.

Sample answers from the record:
COC(=O)C1C2CCC3CCC1N(C/C2=C\c1ccc(-c2cccs2)cc1)C3 (stereo not given)
7.14
COC(=O)C1C2CCC3CCC1N(C/C2=C\c1ccc(-c2ccco2)cc1)C3 (stereo not given)
6.61
COC(=O)C1C2CCC3CCC1N(C/C2=C\c1ccc(-c2ccc(C#N)cc2)cc1)C3 (stereo not given)
6.04
COC(=O)C1C2CCC3CCC1N(C/C2=C\c1ccc(-c2ccccc2)c(Cl)c1)C3 (stereo not given)
6.44

Retrieve pKi measured for COC(=O)C1C2CCC3CCC1N(C/C2=C\c1ccc(-c2ccc(Cl)c(Cl)c2)cc1)C3 (stereo not given) and print it.
6.62

* * *

A collection of compounds and their measured pKi
experimental.system: Sodium-dependent serotonin transporter (Rattus norvegicus, UniProt P31652)
assay.explanation: Ability to inhibit [3H]5-HT reuptake at serotonin transporter from rat brain
pKi is defined as minus the log10 of a concentration measured in mol/L.

Reference set (5 entries):
COC(=O)C1C2CCC3CCC1N(C/C2=C\c1ccc(-c2ccc(C)cc2)cc1)C3 (centres undefined)
5.83
CC(=O)OCC1C2CCC3CCC1N(C/C2=C\c1ccc(-c2ccccc2)cc1)C3 (centres undefined)
7.34
COC(=O)C1C2CCC3CCC1N(C/C2=C\c1ccc(-c2ccc(N(C)C)cc2)cc1)C3 (centres undefined)
6.00
O=C(OCC1C2CCC3CCC1N(C/C2=C\c1ccc(-c2ccc(Cl)c(Cl)c2)c(Cl)c1)C3)c1ccccc1 (centres undefined)
6.02
COC(=O)C1C2CCC3CCC1N(C/C2=C\c1ccc(-c2ccc(C)s2)cc1)C3 (centres undefined)
6.70

Provide measured pKi value, entry: COC(=O)C1C2CCC3CCC1N(C/C2=C\c1ccc(-c2ccc(Cl)cc2Cl)cc1)C3 (centres undefined)
6.41

Item COC(=O)C1C2CCC3CCC1N(C/C2=C\c1ccc(-c2ccsc2)cc1)C3 (centres undefined) : provide pKi
6.84

Give the reported value of pKi for this record: COC(=O)C1C2CCC3CCC1N(C/C2=C\c1ccc(-c2ccc(OC)cc2)s1)C3 (centres undefined)
6.27

Name the recorded pKi of the compound listed here: COC(=O)C1C2CCC3CCC1N(C/C2=C\c1ccc(-c2ccccc2)s1)C3 (centres undefined)
7.15

* * *

experimental.system: Sodium-dependent dopamine transporter (Rattus norvegicus)
Sequence (P23977 whole entry): as the sequence (P23977 whole entry, looked up, one chain of several) above
assay.explanation: Ability to inhibit [3H]DA reuptake at dopamine transporter from rat brain
Reported values of log10(Ki) for individual entries
Friendly reminder: values = log10 of Ki, unit nM.

Worked set:
COC(=O)C1C2CCC3CCC1N(C/C2=C\c1ccc(-c2ccco2)cc1)C3 (centres undefined)
1.99
COC(=O)C1C2CCC3CCC1N(C/C2=C\c1ccc(-c2ccccc2)c(Cl)c1)C3 (centres undefined)
3.63
COC(=O)C1C2CCC3CCC1N(C/C2=C\c1ccc(-c2ccc(N(C)C)cc2)cc1)C3 (centres undefined)
3.02

Supply measured log10(Ki) of COC(=O)C1C2CCC3CCC1N(C/C2=C\c1ccc(-c2ccc(Cl)cc2)cc1)C3 (centres undefined) in your reply.
2.62

Return value of log10(Ki) for input COC(=O)C1C2CCC3CCC1N(C/C2=C\c1ccc(-c2ccc(C)cc2)cc1)C3 (centres undefined) , no commentary.
2.33

Provide one value: measured log10(Ki) of COC(=O)C1C2CCC3CCC1N(C/C2=C\c1ccc(-c2cccc(Cl)c2)cc1)C3 (centres undefined)
1.95

Give log10(Ki) for the following compound: COC(=O)C1C2CCC3CCC1N(C/C2=C\c1ccc(-c2ccc(C(F)(F)F)cc2)cc1)C3 (centres undefined)
3.50

Please indicate log10(Ki) recorded for COC(=O)C1C2CCC3CCC1N(C/C2=C\c1ccc(-c2ccsc2)cc1)C3 (centres undefined)
2.44

Provide measured log10(Ki) value, entry: COC(=O)[C@@H]1C2CCC3CCC1N(C/C2=C\c1ccc(-c2ccccc2)cc1)C3 (some centres undefined)
2.68

* * *

experimental.system: Norepinephrine transporter (Rattus norvegicus, UniProt Q9WTR4)
Sequence (Q9WTR4 whole entry): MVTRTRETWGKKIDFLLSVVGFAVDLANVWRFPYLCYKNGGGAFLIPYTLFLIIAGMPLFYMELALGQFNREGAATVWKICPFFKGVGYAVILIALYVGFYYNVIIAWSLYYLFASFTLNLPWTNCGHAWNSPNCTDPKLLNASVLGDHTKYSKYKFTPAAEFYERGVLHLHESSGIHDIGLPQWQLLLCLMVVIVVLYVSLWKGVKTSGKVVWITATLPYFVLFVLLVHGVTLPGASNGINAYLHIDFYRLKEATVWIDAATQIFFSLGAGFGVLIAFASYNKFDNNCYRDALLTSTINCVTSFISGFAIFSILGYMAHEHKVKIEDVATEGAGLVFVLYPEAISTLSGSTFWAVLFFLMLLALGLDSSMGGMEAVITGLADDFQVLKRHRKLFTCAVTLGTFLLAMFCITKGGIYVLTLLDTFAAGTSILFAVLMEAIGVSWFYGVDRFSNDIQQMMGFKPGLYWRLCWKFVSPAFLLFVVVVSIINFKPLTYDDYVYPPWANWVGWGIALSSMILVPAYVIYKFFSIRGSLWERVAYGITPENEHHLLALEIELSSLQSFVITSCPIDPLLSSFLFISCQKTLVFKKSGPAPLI
assay.explanation: Ability to inhibit [3H]NE reuptake at norepinephrine transporter from rat brain
quantity.kind: pKi
For clarity, pKi is expressed as the negative log10 of concentration in mol/L.

Would you please look over these solved cases?
COC(=O)C1C2CCC3CCC1N(C/C2=C\c1ccc(-c2ccc(Cl)c(Cl)c2)cc1)C3 (stereo not drawn)
8.01
COC(=O)C1C2CCC3CCC1N(C/C2=C\c1ccc(-c2cccs2)cc1)C3 (stereo not drawn)
7.70

Here is the next item to consider.
Determine its reported pKi: COC(=O)C1C2CCC3CCC1N(C/C2=C\c1ccc(-c2cccc(Cl)c2)cc1)C3 (stereo not drawn)
7.76

* * *

experimental.system: Monoamine transporters; Norepinephrine & serotonin (Rattus norvegicus) (UniProt P31652+Q9WTR4)
assay.explanation: Uptake ratio at norepinephrine to serotonin transporters from rat brain
quantity.kind: Ratio

Past entries and their recorded results:
COC(=O)C1C2CCC3CCC1N(C/C2=C\c1ccc(-c2ccc(OC)cc2)s1)C3 (stereo unspecified)
0.02
COC(=O)C1C2CCC3CCC1N(C/C2=C\c1ccc(-c2ccc(N(C)C)cc2)cc1)C3 (stereo unspecified)
0.06
OC[C@@H]1C2CCC3CCC1N(C/C2=C\c1ccc(-c2ccccc2)cc1)C3 (stereo partly specified)
0.12
COC(=O)C1C2CCC3CCC1N(C/C2=C\c1ccc(-c2cccs2)cc1)C3 (stereo unspecified)
0.27
COC(=O)C1C2CCC3CCC1N(C/C2=C\c1ccc(-c2ccco2)cc1)C3 (stereo unspecified)
0.06
COC(=O)C1C2CCC3CCC1N(C/C2=C\c1ccc(-c2ccc(Cl)cc2Cl)cc1)C3 (stereo unspecified)
1.19
COC(=O)C1C2CCC3CCC1N(C/C2=C\c1ccc(-c2ccc(C)s2)cc1)C3 (stereo unspecified)
0.11
COC(=O)C1C2CCC3CCC1N(C/C2=C\c1ccc(-c2cccc(Cl)c2)cc1)C3 (stereo unspecified)
0.08

Output Ratio of COC(=O)C1C2CCC3CCC1N(C/C2=C\c1ccc(-c2ccc(C#N)cc2)cc1)C3 (stereo unspecified)
0.04

Complete the entry with Ratio for COC(=O)C1C2CCC3CCC1N(C/C2=C\c1ccc(-c2ccc(C(F)(F)F)cc2)cc1)C3 (stereo unspecified)
0.52

* * *

Here, each record is paired with measured Ratio data.
experimental.system: Monoamine transporters; Norepininephrine & dopamine (Rattus norvegicus) (UniProt P23977+Q9WTR4)
assay.explanation: Uptake ratio at norepinephrine to dopamine transporters from rat brain
Quick one: just the number, no unit, thanks!

// worked examples, Ratio included
CC(=O)OCC1C2CCC3CCC1N(C/C2=C\c1ccc(-c2ccccc2)cc1)C3 (centres undefined)
0.35
COC(=O)C1C2CCC3CCC1N(C/C2=C\c1ccc(-c2ccc(N(C)C)cc2)cc1)C3 (centres undefined)
0.05
COC(=O)C1C2CCC3CCC1N(C/C2=C\c1ccc(-c2cccs2)cc1)C3 (centres undefined)
0.13
COC(=O)[C@@H]1C2CCC3CCC1N(C/C2=C\c1ccc(-c2ccccc2)cc1)C3 (some centres undefined)
0.02
COC(=O)C1C2CCC3CCC1N(C/C2=C\c1ccc(-c2ccc(OC)cc2)s1)C3 (centres undefined)
0.03
COC(=O)C1C2CCC3CCC1N(C/C2=C\c1ccc(-c2ccccc2)c(Cl)c1)C3 (centres undefined)
0.23

Return reported Ratio. Input compound: OC[C@@H]1C2CCC3CCC1N(C/C2=C\c1ccc(-c2ccccc2)cc1)C3 (some centres undefined)
0.14

Give me measured Ratio, please, for this compound: COC(=O)C1C2CCC3CCC1N(C/C2=C\c1ccc(-c2ccc(Cl)c(Cl)c2)cc1)C3 (centres undefined)
0.04

Return reported Ratio. Input compound: COC(=O)C1C2CCC3CCC1N(C/C2=C\c1ccc(-c2cccc(Cl)c2)cc1)C3 (centres undefined)
0.2

* * *

Catalogue of Ratio readings, one per entry.
experimental.system: Monoamine transporters; Norepininephrine & dopamine (Rattus norvegicus) (UniProt P23977+Q9WTR4)
assay.explanation: Uptake ratio at norepinephrine to dopamine transporters from rat brain
In your answer, state the number alone without any accompanying words.

Use these answered entries as a reference point.
COC(=O)C1C2CCC3CCC1N(C/C2=C\c1ccc(-n2cccc2)cc1)C3 (stereo not drawn)
0.08
COC(=O)C1C2CCC3CCC1N(C/C2=C\c1ccc(-c2ccc(Cl)cc2Cl)cc1)C3 (stereo not drawn)
0.29

Query molecule follows.
Let me know recorded Ratio for COC(=O)C1C2CCC3CCC1N(C/C2=C\c1ccc(-c2cc(Cl)cc(Cl)c2)cc1)C3 (stereo not drawn) , thanks.
0.58
